- System: human breast adenocarcinoma MDA-MB-231 cell line
- test-method-notes: Cytotoxicity: cell growth inhibition in cultures, viable cells counted by trypan blue exclusion
- Format: cell-based
- condition-description: dried compound/paclitaxel mixed-micellar system (OF), freeze-dried in 0.05 M sodium acetate buffer, reconstituted with water
result-type: Cell growth inhibition % OF SAB/W

Example cases with answers are listed next.
molecule | Cell growth inhibition % OF SAB/W
CC1=C(/C=C/C(C)=C/C=C/C(C)=C\C(=O)N[C@@H](CCS(=O)(=O)O)C(=O)O)C(C)(C)CCC1 [Compound IV, N-(13-cis-Retinoyl)-L-homocysteic acid] | close to 63%
CC1=C(/C=C/C(C)=C/C=C/C(C)=C/C(=O)N[C@@H](CS(=O)(=O)O)C(=O)O)C(C)(C)CCC1 [Compound I, N-(all-trans-Retinoyl)-L-cysteic acid] | close to 72%
CC1=C(/C=C/C(C)=C/C=C/C(C)=C\C(=O)N[C@@H](CS(=O)O)C(=O)O)C(C)(C)CCC1 | close to 58%
CC1=C(/C=C/C(C)=C/C=C/C(C)=C\C(=O)N[C@@H](CS(=O)(=O)O)C(=O)O)C(C)(C)CCC1 [Compound II, N-(13-cis-Retinoyl)-L-cysteic acid] | close to 72%
CC1=C(/C=C/C(C)=C/C=C/C(C)=C/C(=O)N[C@@H](CS(=O)O)C(=O)O)C(C)(C)CCC1 | close to 58%

Query: State the recorded Cell growth inhibition % OF SAB/W for this entry: CC1=C(/C=C/C(C)=C/C=C/C(C)=C/C(=O)N[C@@H](CCS(=O)(=O)O)C(=O)O)C(C)(C)CCC1
Response: close to 63%

---

- Test system: human breast adenocarcinoma MDA-MB-231 cell line
- test-method-notes: Cytotoxicity: cell growth inhibition in cultures, viable cells counted by trypan blue exclusion
- Format: cell-based
- condition-description: Homo sapiens, MDA-MB-231, sodium salt in saline; final 10^−10 mol/L; day 1; three days
Parameter threshold = 20%. Response is class 1 when inhibition at 0.0001 µM meets or exceeds it, else class 0.

molecule | discrete-label
CC1=C(/C=C/C(C)=C/C=C/C(C)=C\C(=O)N[C@@H](CS(=O)O)C(=O)O)C(C)(C)CCC1 | class 0
CC1=C(/C=C/C(C)=C/C=C/C(C)=C\C(=O)N[C@@H](CCS(=O)(=O)O)C(=O)O)C(C)(C)CCC1 [Compound IV, N-(13-cis-Retinoyl)-L-homocysteic acid] | class 0
CC1=C(/C=C/C(C)=C/C=C/C(C)=C/C(=O)N[C@@H](CS(=O)(=O)O)C(=O)O)C(C)(C)CCC1 [Compound I, N-(all-trans-Retinoyl)-L-cysteic acid] | class 1

Query: Check the entry CC1=C(/C=C/C(C)=C/C=C/C(C)=C\C(=O)N[C@@H](CS(=O)(=O)O)C(=O)O)C(C)(C)CCC1 [Compound II, N-(13-cis-Retinoyl)-L-cysteic acid] : does inhibition at 0.0001 µM equal or exceed 20%?
Response: class 1

Query: Can CC1=C(/C=C/C(C)=C/C=C/C(C)=C/C(=O)N[C@@H](CS(=O)O)C(=O)O)C(C)(C)CCC1 be said to have inhibition at 0.0001 µM at or above 20%?
Response: class 0

Query: Assess whether reported inhibition at 0.0001 µM for CC1=C(/C=C/C(C)=C/C=C/C(C)=C/C(=O)N[C@@H](CCS(=O)(=O)O)C(=O)O)C(C)(C)CCC1 sits at 20% or higher.
Response: class 0

---

Recorded number of living cells values for a group of compounds are listed next.
- Tested on: human breast adenocarcinoma MDA-MB-231 cell line
- test-method-notes: Cytotoxicity: cell growth inhibition in cultures, viable cells counted by trypan blue exclusion
- Assay type: cell-based
- condition-description: sodium salt in saline; final 10^−10 mol/L; day 1; three days

Below, each entry is followed by its recorded number of living cells result.
compound | number of living cells
CC1=C(/C=C/C(C)=C/C=C/C(C)=C/C(=O)N[C@@H](CCS(=O)(=O)O)C(=O)O)C(C)(C)CCC1 [Compound III] | 45.9 ± 2.84 × 10^3
CC1=C(/C=C/C(C)=C/C=C/C(C)=C\C(=O)N[C@@H](CCS(=O)(=O)O)C(=O)O)C(C)(C)CCC1 [Compound IV, N-(13-cis-Retinoyl)-L-homocysteic acid] | 44.2 ± 3.35 × 10^3

Below: the item to evaluate.
Query: Quick one: number of living cells of CC1=C(/C=C/C(C)=C/C=C/C(C)=C\C(=O)N[C@@H](CS(=O)(=O)O)C(=O)O)C(C)(C)CCC1 [Compound II, N-(13-cis-Retinoyl)-L-cysteic acid] ?
Response: 38.1 ± 1.18 × 10^3

---

- Tested on: human breast adenocarcinoma MDA-MB-231 cell line
- test-method-notes: Cytotoxicity: cell growth inhibition in cultures, viable cells counted by trypan blue exclusion
- Type: cell-based
- condition-description: dried compound/paclitaxel mixed-micellar system (OF), freeze-dried as water solution, reconstituted with 0.05 M sodium acetate buffer
result-type: Cell growth inhibition % OF W/SAB

molecule | reported-result
CC1=C(/C=C/C(C)=C/C=C/C(C)=C\C(=O)N[C@@H](CS(=O)O)C(=O)O)C(C)(C)CCC1 | close to 56%
CC1=C(/C=C/C(C)=C/C=C/C(C)=C/C(=O)N[C@@H](CS(=O)(=O)O)C(=O)O)C(C)(C)CCC1 [Compound I, N-(all-trans-Retinoyl)-L-cysteic acid] | close to 71%
CC1=C(/C=C/C(C)=C/C=C/C(C)=C/C(=O)N[C@@H](CS(=O)O)C(=O)O)C(C)(C)CCC1 | close to 56%
CC1=C(/C=C/C(C)=C/C=C/C(C)=C/C(=O)N[C@@H](CCS(=O)(=O)O)C(=O)O)C(C)(C)CCC1 | close to 62%
CC1=C(/C=C/C(C)=C/C=C/C(C)=C\C(=O)N[C@@H](CS(=O)(=O)O)C(=O)O)C(C)(C)CCC1 [Compound II, N-(13-cis-Retinoyl)-L-cysteic acid] | close to 71%

Please look at the following molecule next.
Query: Entry CC1=C(/C=C/C(C)=C/C=C/C(C)=C\C(=O)N[C@@H](CCS(=O)(=O)O)C(=O)O)C(C)(C)CCC1 [Compound IV, N-(13-cis-Retinoyl)-L-homocysteic acid] has what Cell growth inhibition % OF W/SAB?
Response: close to 62%

---

- Test system: human breast adenocarcinoma MDA-MB-231 cell line
- test-method-notes: Cytotoxicity: cell growth inhibition in cultures, viable cells counted by trypan blue exclusion
- Type: cell-based
- condition-description: sodium salt in saline; final 10^−9 mol/L; day 1; three days
result-type: number of living cells

// known answers, use as guide
compound | reported-result
CC1=C(/C=C/C(C)=C/C=C/C(C)=C/C(=O)N[C@@H](CCS(=O)(=O)O)C(=O)O)C(C)(C)CCC1 | 43.6 ± 2.57 × 10^3
CC1=C(/C=C/C(C)=C/C=C/C(C)=C\C(=O)N[C@@H](CS(=O)O)C(=O)O)C(C)(C)CCC1 | 45.3 ± 2.55 × 10^3
CC1=C(/C=C/C(C)=C/C=C/C(C)=C\C(=O)N[C@@H](CCS(=O)(=O)O)C(=O)O)C(C)(C)CCC1 [Compound IV, N-(13-cis-Retinoyl)-L-homocysteic acid] | 43.6 ± 3.21 × 10^3
CC1=C(/C=C/C(C)=C/C=C/C(C)=C/C(=O)N[C@@H](CS(=O)O)C(=O)O)C(C)(C)CCC1 | 45.5 ± 2.80 × 10^3

Query: Look up number of living cells for this compound: CC1=C(/C=C/C(C)=C/C=C/C(C)=C/C(=O)N[C@@H](CS(=O)(=O)O)C(=O)O)C(C)(C)CCC1 [Compound I, N-(all-trans-Retinoyl)-L-cysteic acid]
Response: 35.4 ± 2.23 × 10^3

Query: // number of living cells lookup, key: CC1=C(/C=C/C(C)=C/C=C/C(C)=C\C(=O)N[C@@H](CS(=O)(=O)O)C(=O)O)C(C)(C)CCC1 [Compound II, N-(13-cis-Retinoyl)-L-cysteic acid]
Response: 34.5 ± 1.94 × 10^3

---

- System: human breast adenocarcinoma MDA-MB-231 cell line
- test-method-notes: Cytotoxicity: cell growth inhibition in cultures, viable cells counted by trypan blue exclusion
- Assay type: cell-based
- condition-description: Homo sapiens, MDA-MB-231, sodium salt of the compound dissolved in saline (1 mg/ml); final concentration 10^−11 mol/L; day 1; three days
result-type: inhibition at 10 pM (%)
Quick reminder: number only, in %, skip the unit.

See these solved cases before continuing.
molecule | inhibition at 10 pM / %
CC1=C(/C=C/C(C)=C/C=C/C(C)=C/C(=O)N[C@@H](CS(=O)O)C(=O)O)C(C)(C)CCC1 | 13.3
CC1=C(/C=C/C(C)=C/C=C/C(C)=C/C(=O)N[C@@H](CCS(=O)(=O)O)C(=O)O)C(C)(C)CCC1 | 16.9
CC1=C(/C=C/C(C)=C/C=C/C(C)=C/C(=O)N[C@@H](CS(=O)(=O)O)C(=O)O)C(C)(C)CCC1 [Compound I, N-(all-trans-Retinoyl)-L-cysteic acid] | 28.6
CC1=C(/C=C/C(C)=C/C=C/C(C)=C\C(=O)N[C@@H](CS(=O)O)C(=O)O)C(C)(C)CCC1 | 12.3
CC1=C(/C=C/C(C)=C/C=C/C(C)=C\C(=O)N[C@@H](CS(=O)(=O)O)C(=O)O)C(C)(C)CCC1 [Compound II, N-(13-cis-Retinoyl)-L-cysteic acid] | 27.9

We now examine a further molecule.
Query: For CC1=C(/C=C/C(C)=C/C=C/C(C)=C\C(=O)N[C@@H](CCS(=O)(=O)O)C(=O)O)C(C)(C)CCC1 [Compound IV, N-(13-cis-Retinoyl)-L-homocysteic acid] , what is its reported inhibition at 10 pM?
Response: 14.8
